- assay_target: human full-length HSP90 (Homo sapiens, UniProt P08238)
- Sequence (P08238 whole entry): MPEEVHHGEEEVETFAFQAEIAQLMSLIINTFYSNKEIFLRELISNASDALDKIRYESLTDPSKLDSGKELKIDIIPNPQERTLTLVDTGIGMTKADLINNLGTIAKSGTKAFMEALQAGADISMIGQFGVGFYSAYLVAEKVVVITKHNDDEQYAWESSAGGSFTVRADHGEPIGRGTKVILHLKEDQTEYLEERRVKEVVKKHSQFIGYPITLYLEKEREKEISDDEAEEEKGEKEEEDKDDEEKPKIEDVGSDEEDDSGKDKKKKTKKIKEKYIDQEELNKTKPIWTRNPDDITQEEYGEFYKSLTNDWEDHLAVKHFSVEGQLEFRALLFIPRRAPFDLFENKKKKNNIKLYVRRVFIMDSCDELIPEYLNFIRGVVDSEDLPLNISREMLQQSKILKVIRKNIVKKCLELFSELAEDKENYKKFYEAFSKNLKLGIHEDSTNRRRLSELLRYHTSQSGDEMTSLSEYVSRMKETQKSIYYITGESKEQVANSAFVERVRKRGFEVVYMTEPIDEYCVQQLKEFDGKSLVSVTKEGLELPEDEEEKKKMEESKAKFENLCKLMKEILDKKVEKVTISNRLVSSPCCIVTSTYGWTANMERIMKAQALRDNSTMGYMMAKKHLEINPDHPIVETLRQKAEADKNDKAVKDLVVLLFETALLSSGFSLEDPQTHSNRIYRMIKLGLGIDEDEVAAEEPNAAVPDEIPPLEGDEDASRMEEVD
Please provide measured IC50 for the entries that follow.

Form: molecule = CCN(CC)CCOc1cc(-c2ccc(Cl)cc2Cl)c2c(C#N)c[nH]c2n1 [Example 10] ; IC50 = 1 to 10 µM

Noted for CCN(CC)CCOc1cc(-c2ccccc2)c2c(C#N)c[nH]c2n1 [Example 9] : its IC50 reads > 10 µM

The measured IC50 associated with Cc1ccc(-c2ccnc3[nH]cc(C#N)c23)c(C)c1 [Example 1] reads < 1 µM

Sample Cc1ccc(-c2ccnc3[nH]cc(Br)c23)c(C)c1 [Example 6] ; IC50 observed: 1 to 10 µM
